Assay: Water solubility assay (pH 7.8 buffer)
Format: physicochemical
Conditions: 35 mM HEPES buffer; 35 mM HEPES pH 7.8, 1% DMSO, 25° C., 18 h; concentration at which compound remains in solution; read-out: Solubility
Numbered stars: 1 amine (or outer) side, 2 acyl side, 3 side chain; on linkers, the order of the positions; unused ones are H or OH. Square brackets hold non-standard residues; d marks the D form. Peptide text beside a SMILES is read from it. X26 = C[C@H](C/C=C/c1cccc(N2CCOCC2)n1)[C@@H](O)[C@H](C(=O)[*:2])N(C)[*:1]; X19 = C[C@H](CCN1CCCC(C(F)(F)F)C1)[C@@H](O)[C@H](C(=O)[*:2])N(C)[*:1]; X28 = C[C@H](CCN1CCC(c2ccccc2)CC1)[C@@H](O)[C@H](C(=O)[*:2])N(C)[*:1]; X33 = C[C@H](CCN1CCC(F)(CO)CC1)[C@@H](O)[C@H](C(=O)[*:2])N(C)[*:1]; X12 = C[C@H](CCN(C)Cc1ccncc1)[C@@H](O)[C@H](C(=O)[*:2])N(C)[*:1]; d(aThr) = C[C@@H](O)[C@@H](N)C(=O)O; NMeL = CN[C@@H](CC(C)C)C(=O)O; dNMeL = CN[C@H](CC(C)C)C(=O)O; dNMeV = CN[C@@H](C(=O)O)C(C)C; Hiv = CC(C)[C@H](O)C(=O)O; Sar = CNCC(=O)O
observed.property: solubility at 18 h

compound: CC(C)C[C@@H]1C(=O)N[C@H](CC(C)C)C(=O)N(C)[C@H](C(C)C)C(=O)N(C)[C@H]([C@H](O)[C@H](C)CCN2CCC(F)(CO)CC2)C(=O)N[C@H]([C@@H](C)O)C(=O)N(C)CC(=O)N(C)[C@@H](CC(C)C)C(=O)N[C@H](CC(C)C)C(=O)N(C)[C@H](CC(C)C)C(=O)N[C@H](C)C(=O)O[C@@H](C(C)C)C(=O)N1C [Example 25] (cyclo([Hiv][dNMeL][dL][dNMeV][X33][d(aThr)][Sar][NMeL][dL][dNMeL][dA]))
value.measured: > 100 µM

Ask: Give solubility at 18 h for CC(C)C[C@@H]1C(=O)N[C@H](CC(C)C)C(=O)N(C)[C@H](C(C)C)C(=O)N(C)[C@H]([C@H](O)[C@H](C)CCN2CCCC(C(F)(F)F)C2)C(=O)N[C@H]([C@@H](C)O)C(=O)N(C)CC(=O)N(C)[C@@H](CC(C)C)C(=O)N[C@H](CC(C)C)C(=O)N(C)[C@H](CC(C)C)C(=O)N[C@H](C)C(=O)O[C@@H](C(C)C)C(=O)N1C (stereo partly drawn) [Example 9] (cyclo([Hiv][dNMeL][dL][dNMeV][X19][d(aThr)][Sar][NMeL][dL][dNMeL][dA]))
Reply: 10 to 25 µM

Ask: Give solubility at 18 h for CC(C)C[C@@H]1C(=O)N[C@H](CC(C)C)C(=O)N(C)[C@H](C(C)C)C(=O)N(C)[C@H]([C@H](O)[C@H](C)C/C=C/c2cccc(N3CCOCC3)n2)C(=O)N[C@H]([C@@H](C)O)C(=O)N(C)CC(=O)N(C)[C@@H](CC(C)C)C(=O)N[C@H](CC(C)C)C(=O)N(C)[C@H](CC(C)C)C(=O)N[C@H](C)C(=O)O[C@@H](C(C)C)C(=O)N1C [Example 18] (cyclo([Hiv][dNMeL][dL][dNMeV][X26][d(aThr)][Sar][NMeL][dL][dNMeL][dA]))
Reply: 10 to 25 µM

Ask: Give solubility at 18 h for CC(C)C[C@@H]1C(=O)N[C@H](CC(C)C)C(=O)N(C)[C@H](C(C)C)C(=O)N(C)[C@H]([C@H](O)[C@H](C)CCN2CCC(c3ccccc3)CC2)C(=O)N[C@H]([C@@H](C)O)C(=O)N(C)CC(=O)N(C)[C@@H](CC(C)C)C(=O)N[C@H](CC(C)C)C(=O)N(C)[C@H](CC(C)C)C(=O)N[C@H](C)C(=O)O[C@@H](C(C)C)C(=O)N1C [Example 34] (cyclo([Hiv][dNMeL][dL][dNMeV][X28][d(aThr)][Sar][NMeL][dL][dNMeL][dA]))
Reply: 10 to 25 µM

Ask: Give solubility at 18 h for CC(C)C[C@@H]1C(=O)N[C@H](CC(C)C)C(=O)N(C)[C@H](C(C)C)C(=O)N(C)[C@H]([C@H](O)[C@H](C)CCN(C)Cc2ccncc2)C(=O)N[C@H]([C@@H](C)O)C(=O)N(C)CC(=O)N(C)[C@@H](CC(C)C)C(=O)N[C@H](CC(C)C)C(=O)N(C)[C@H](CC(C)C)C(=O)N[C@H](C)C(=O)O[C@@H](C(C)C)C(=O)N1C [Example 3] (cyclo([Hiv][dNMeL][dL][dNMeV][X12][d(aThr)][Sar][NMeL][dL][dNMeL][dA]))
Reply: 50 to 75 µM
